# EXPERIMENT: Solubility of bases in propylene glycol monomethyl ether acetate (shaken overnight, visual inspection)
# Format: physicochemical
# STUDY_CONDITIONS: diluted to 0.10 wt. % in propylene glycol monomethyl ether acetate, visual inspection
MEASURED_METRIC: Solubility, 0.1 wt. % in PGMEA

- COMPOUND: "Nc1nc(N)c2[nH]cnc2n1 [2,6-Diaminopurine]"
  EXPERIMENTAL_RESULT: "Not soluble"
- COMPOUND: "c1ncc2[nH]cnc2n1 [Purine]"
  EXPERIMENTAL_RESULT: "Not soluble"
- COMPOUND: "Cn1c(=O)c2[nH]c(Cl)nc2n(C)c1=O [8-Chlorotheophyllline]"
  EXPERIMENTAL_RESULT: "Not soluble"
- COMPOUND: "Cn1c(=O)c2[nH]cnc2n(C)c1=O [Theophylline, reference compound]"
  EXPERIMENTAL_RESULT: "Soluble"
- COMPOUND: "Nc1ncnc2nc[nH]c12 [Adenine]"
  EXPERIMENTAL_RESULT: "Not soluble"
- COMPOUND: "Nc1nc2nc[nH]c2c(=O)[nH]1 [Guanine]"
  EXPERIMENTAL_RESULT: "Not soluble"
- COMPOUND: "CN(C)c1ncnc2nc[nH]c12 [6-(Dimethylamino)purine]"
  EXPERIMENTAL_RESULT: "Soluble"
- COMPOUND: "Cn1c(=O)c2[nH]cnc2n(C)c1=O [Aminophylline, reference compound]"
  EXPERIMENTAL_RESULT: "Not soluble"
